Study target: MDM2 (Homo sapiens, UniProt Q00987)
Sequence (Q00987 whole entry): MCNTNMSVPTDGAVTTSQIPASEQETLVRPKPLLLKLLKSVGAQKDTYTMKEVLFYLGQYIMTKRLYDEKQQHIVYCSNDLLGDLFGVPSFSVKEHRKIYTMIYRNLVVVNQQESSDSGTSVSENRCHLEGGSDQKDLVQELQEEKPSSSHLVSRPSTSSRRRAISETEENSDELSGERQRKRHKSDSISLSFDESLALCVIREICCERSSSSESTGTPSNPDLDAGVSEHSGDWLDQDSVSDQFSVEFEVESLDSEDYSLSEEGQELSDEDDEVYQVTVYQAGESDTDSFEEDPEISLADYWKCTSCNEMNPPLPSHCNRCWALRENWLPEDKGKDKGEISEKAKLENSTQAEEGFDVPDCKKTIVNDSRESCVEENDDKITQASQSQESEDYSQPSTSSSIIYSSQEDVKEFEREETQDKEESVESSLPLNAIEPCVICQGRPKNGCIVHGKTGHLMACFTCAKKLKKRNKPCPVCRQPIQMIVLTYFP
Assay text: MDM2 binding screen: displacement of fluorescent p53 peptide probe FP53 (fluorescence polarization)
Condition description: Acid 14; replicate; crude macrocycle reactions
Numbered stars: 1 amine (or outer) side, 2 acyl side, 3 side chain; on linkers, the order of the positions; unused ones are H or OH. Bridge positions count the residues as written; N and C are the ends. Square brackets hold non-standard residues; d marks the D form. Peptide text beside a SMILES is read from it. * marks the point of attachment. 2Thenoyl(5-Cl) = O=C(c1ccc(Cl)s1)*; Cysteamide = C(CS[*:3])N[*:1]; Dap = NC[CH](N)C(=O)O; Mpa = O=C(O)CCS
Parameter measured: fraction fluorescent probe displaced, Replicate

P = O=C1CCSSCCNC(=O)C(CNC(=O)c2ccc(Cl)s2)NC(=O)C2CCCN2C(=O)C(Cc2ccccc2)N1 (stereo not drawn) [X F B1 D3 Acid 14] ([Mpa]FP[Dap](2Thenoyl(5-Cl))-Cysteamide; disulfide 1-C; configuration not given here)
Q = O=C1NCCSSCCC(=O)N2CC(NC(=O)c3ccc(Cl)s3)CC2C(=O)NC(Cc2ccccc2)C(=O)NCc2cccc1c2 (stereo not drawn)
R = O=C1CCSSCCNC(=O)[C@H](Cc2ccccc2)NC(=O)C2(CCN(C(=O)c3ccc(Cl)s3)CC2)NC(=O)CCN1
Rank order required: fraction fluorescent probe displaced, Replicate, descending. The response must list the labels following the requested ordering.
P, R, Q

* * *

Study target: MDM2 (Homo sapiens)
Assay text: IC50 of purified MDM2-binding macrocycles, fluorescence polarization competition with FP53
Condition description: HPLC-purified macrocycle; FP displacement of fluorescent reporter peptide; replicate 1; read-out: IC50 Replicate 1
pIC50: −log10 of the molar value.
Parameter measured: pIC50

| Compound | pIC50 |
| --- | --- |
| O=C(NC[C@@H]1NC(=O)[C@H]2CCCN(C2)C(=O)CCSSCCNC(=O)[C@H](Cc2c[nH]c3ccccc23)NC1=O)c1ccc(Cl)s1 [M6] | 5.59 |

A = O=C(NC[C@@H]1NC(=O)[C@H]2CCCN(C2)C(=O)CCSSCCNC(=O)[C@H](Cc2c[nH]c3ccccc23)NC1=O)c1ccc(Cl)cc1 [M7]
B = O=C(/C=C/c1ccccc1)NC[C@@H]1NC(=O)[C@H]2CCCN(C2)C(=O)CCSSCCNC(=O)[C@H](Cc2c[nH]c3ccccc23)NC1=O [M8]
API: POST /compare with A and B ; response names the item with higher pIC50. Kindly state the label of the option you pick.
B
(B: 6.00, A: 5.42)

* * *

Study target: UniProtKB Q00987
Assay text: MDM2 binding screen: displacement of fluorescent p53 peptide probe FP53 (fluorescence polarization)
Condition description: crude reaction of macrocycle scaffold with Acid 14; replicate
Parameter measured: fraction fluorescent probe displaced

| Molecule | fraction fluorescent probe displaced |
| --- | --- |
| O=C1NC2(CCN(C(=O)c3ccc(Cl)s3)CC2)C(=O)N[C@@H](Cc2ccccc2)C(=O)NCCSSCCC(=O)N2CCC[C@H]1C2 | 0.12 |

a = O=C1CCSSCCNC(=O)[C@H](Cc2ccccc2)NC(=O)[C@H]2CCCN(C2)C(=O)C2(CCN(C(=O)c3ccc(Cl)s3)CC2)N1
b = O=C1NC(Cc2ccccc2)C(=O)NCCSSCCC(=O)N2CCN(C(=O)c3ccc(Cl)s3)CC2C(=O)N2CCCC1C2 (stereo not shown)
c = O=C1NCCSSCCC(=O)N2CCN(C(=O)c3ccc(Cl)s3)CC2C(=O)NC(Cc2ccccc2)C(=O)N2CCCC1C2 (stereo not shown)
Thanks in advance: please rank these 3 entries by fraction fluorescent probe displaced, highest to lowest. API: response body holds the labels in the requested order.
a, b, c
(a: 0.10, b: 0.07, c: -0.00432)

* * *

Study target: thrombin (Homo sapiens, UniProt P00734)
Construct: consists of two polypeptide chains of 36 (light chain) and 259 amino acid
Assay text: Determination of Kis of purified thrombin inhibitors (IC50, Cheng-Prusoff)
Format: biochemical
Condition description: thrombin; replicate 1; read-out: Ki (nM) Replicate 1
Procedure: Purified thrombin inhibitors (10 mM in DMSO) were diluted to 80 μM in 125 μL of Tris buffer (100 mM Tris-Cl, 150 mM NaCl, 10 mM MgCl2, 1 mM CaCl2) containing 0.1% w/v BSA, 0.01% v/v Triton-X100 and 0.2% DMSO. […] The thrombin activity was measured in 96-well plates (Greiner, 655101) and the residual activity calculated as described above in the assay used to measure activities of HPLC-separated fractions of screening hits. […]
Parameter measured: Ki (nM)
# unit: nM | format: bare number

State Ki (thrombin (Homo sapiens, UniProt P00734)) of CC(C)C1NC(=O)CCSCSCCNC(=O)C(CNC(=O)c2ccc(Cl)s2)NC(=O)c2cccc(c2)CNC1=O (stereo not shown) .
92

* * *

Study target: MDM2 (Homo sapiens)
Assay text: MDM2 binding screen of Libraries 3 and 4: displacement of fluorescent probe F-M8 at 750 nM macrocycle
Condition description: Panel b, Library 3: 63 scaffolds combinatorially acylated with 15 carboxylic acids at 30 picomole scale; displacement of fluorescent peptide probe; macrocycle 750 nM
Parameter measured: fraction of fluorescent probe displaced

| Molecule | Measurement |
| --- | --- |
| O=C(CCS(=O)(=O)c1ccccc1)NC[C@H]1NC(=O)C2(CC2)CNC(=O)CCSSCCNC(=O)[C@H](Cc2ccc3ccccc3c2)NC1=O | -0.00533 |
| CN1C(=O)[C@@H](CNC(=O)c2ccc(Cl)cc2)NC(=O)[C@H]2CCCN(C2)C(=O)CCSSCCNC(=O)[C@@H]1Cc1c[nH]c2ccccc12 | 0.00133 |
| CN1C(=O)[C@H](CNC(=O)c2ccc(Cl)s2)NC(=O)[C@@H]2CN(CCO2)C(=O)CCSSCCNC(=O)[C@@H]1Cc1c[nH]c2ccccc12 | 0.028 |

a = CC(Oc1cccc(Cl)c1)C(=O)NCC1NC(=O)C2CCCN(C2)C(=O)CCSSCCNC(=O)C(Cc2c[nH]c3ccccc23)NC1=O (mixture of isomers)
b = O=C(O)c1cccc(Oc2ccccc2)c1
Hi there! Just curious which has the higher fraction of fluorescent probe displaced between a and b . Please reply using the label of the selected record.
b

P = CC(Oc1cccc(Cl)c1)C(=O)NC[C@H]1NC(=O)[C@H]2CCCN(C2)C(=O)CCSSCCNC(=O)[C@H](Cc2cccc3ccccc23)NC1=O (stereo partly drawn)
Q = Cn1cc(C[C@@H]2NC(=O)[C@@H](CNC(=O)c3ccc4ccccc4c3)NC(=O)C3(CC3)CNC(=O)CCSSCCNC2=O)c2ccccc21
R = O=C(NC[C@H]1NC(=O)[C@@H]2CN(CCO2)C(=O)CCSSCCNC(=O)[C@H](Cc2c[nH]c3ccccc23)NC1=O)C1COc2ccccc2O1 (stereo partly drawn)
S = O=C(/C=C/c1ccc2ccccc2c1)NC[C@@H]1NC(=O)[C@H]2CCCN(C2)C(=O)CCSSCCNC(=O)[C@H](Cc2c[nH]c3ccccc23)NC1=O
T = O=C(C=Cc1ccc(Cl)cc1)NCCN1CC(=O)NC(Cc2cccc3ccccc23)C(=O)NCCSSCCC(=O)N2CCOC(C2)C1=O (stereo not drawn)
Sort entries by fraction of fluorescent probe displaced from minimum to maximum value. Arrange the labels as the request states and list them.
P, R, Q, T, S

a = O=C1CCSSCCNC(=O)[C@H](Cc2c[nH]c3cc(Cl)ccc23)NC(=O)CN(CCNC(=O)C2COc3ccccc3O2)C(=O)C2(CC2)CN1 (stereo partly drawn)
b = CN1C(=O)CN(CCNC(=O)c2cccc(Oc3ccccc3)c2)C(=O)[C@H]2CCCN(C2)C(=O)CCSSCCNC(=O)[C@@H]1Cc1c[nH]c2ccccc12
c = O=C(/C=C/c1ccc(OCc2ccccc2)cc1)NC[C@@H]1NC(=O)[C@@H]2CN(CCO2)C(=O)CCSSCCNC(=O)[C@H](Cc2ccc3ccccc3c2)NC1=O
d = O=C1CCSSCCNC(=O)[C@@H](Cc2c[nH]c3ccccc23)NC(=O)[C@@H](CNC(=O)c2ccc(Cl)cc2)NC(=O)C2(CC2)CN1
e = O=C(/C=C/c1ccc2ccccc2c1)NC[C@H]1NC(=O)C2(CC2)CNC(=O)CCSSCCNC(=O)[C@H](Cc2c[nH]c3cc(Cl)ccc23)NC1=O
Let's sort these by fraction of fluorescent probe displaced, smallest first. Go ahead? API: response body holds the labels in the requested order.
b, e, a, d, c
